These measurements were taken from patent US9266922B2.

Consider the following compounds; for each one, report its CEM.T2 % Residual Binding.
Biological target: HLA A*0201 on CEM.T2 cell line (Homo sapiens, UniProt P04439, D140Y/D185E/D98H/E176V/E277Q/G131W/G231S/I119V/I121R/I166T/I218V/L300P/L318F/N151K/N90K/P208A/P217A/Q86G/Q94H/R138H/R169H/T345S)
Construct: This cell line expresses HLA A*0201 but is deficient for TAP transporter; endogenous in cells; host or cells: CEM.T2 (T2) cell line
Assay: Cellular dissociation assay on CEM.T2 cells
Type: cell-based
Details: after Brefeldin A 1 h and 3 h in serum-free RPMI at 37° C. (4 h)
Residues, ends and D or L forms follow the SMILES beside them.
One number for each entry, in %.

compound="CC(C)C[C@H](NC(=O)[C@@H](NC(=O)[C@H](CO)NC(=O)[C@H](Cc1ccc(O)cc1)NC(=O)[C@H](CO)NC(=O)[C@@H](N)CCCNC(=N)N)[C@@H](C)O)C(=O)N[C@H](C(=O)N[C@H](C(=O)N[C@H](C(=O)O)C(C)C)[C@@H](C)O)[C@@H](C)O [Peptide 443] (H-RSYSTLTTV-OH; N-terminus and C-terminus assumed)" observed_value=0

Below is a list of compounds. For each, state its recorded CEM.T2 % Residual Binding.
1. CC(C)C[C@H](NC(=O)[C@H](C)NC(=O)[C@H](C)N)C(=O)N[C@@H](CC(C)C)C(=O)N[C@@H](Cc1ccccc1)C(=O)N[C@@H](CS)C(=O)N[C@@H](CC(C)C)C(=O)N[C@@H](CC(C)C)C(=O)N[C@H](C(=O)O)C(C)C [Peptide 357] (H-AALLFCLLV-OH; N-terminus and C-terminus assumed)
2. CC(C)C[C@H](NC(=O)[C@H](CS)NC(=O)[C@H](Cc1ccccc1)NC(=O)[C@H](CC(C)C)NC(=O)[C@@H](N)CC(C)C)C(=O)N[C@@H](CC(C)C)C(=O)N[C@H](C(=O)N[C@H](C(=O)N[C@H](C(=O)O)C(C)C)C(C)C)C(C)C [Peptide 359] (H-LLFCLLVVV-OH; N-terminus and C-terminus assumed)
3. CC(C)[C@H](NC(=O)CNC(=O)[C@@H](NC(=O)[C@@H](NC(=O)[C@@H](NC(=O)[C@@H](NC(=O)[C@H](CO)NC(=O)[C@H](C)NC(=O)[C@@H](N)CO)C(C)C)C(C)C)C(C)C)C(C)C)C(=O)O [Peptide 347] (H-SASVVVVGV-OH; N-terminus and C-terminus assumed)

Solution:
18
23
0

Below is a list of compounds. For each, state its recorded CEM.T2 % Residual Binding.
1. CC[C@H](C)[C@H](N)C(=O)N[C@@H](CC(C)C)C(=O)N[C@@H](Cc1c[nH]cn1)C(=O)N[C@H](C(=O)N[C@@H](CO)C(=O)N[C@@H](Cc1ccccc1)C(=O)N[C@@H](CC(C)C)C(=O)N[C@@H](C)C(=O)N[C@@H](CCC(=O)O)C(=O)O)C(C)C [Peptide 239] (H-ILHVSFLAE-OH; N-terminus and C-terminus assumed)
2. CC(C)C[C@H](NC(=O)[C@H](C)N)C(=O)N[C@@H](CC(C)C)C(=O)N[C@@H](Cc1ccccc1)C(=O)N[C@@H](CS)C(=O)N[C@@H](CC(C)C)C(=O)N[C@@H](CC(C)C)C(=O)N[C@H](C(=O)N[C@H](C(=O)O)C(C)C)C(C)C [Peptide 358] (H-ALLFCLLVV-OH; N-terminus and C-terminus assumed)

Solution:
[0, 26]
